These data points were gathered from patent US20250250357A1.

- system.under.test: T1, human MSLN-R2-his protein (human, UniProt Q13421 391-486)
- T1 construct: it is put last here; also called human MSLN-R2 protein; hMSLN-R2-his; not shown: His tag
- experimental.protocol: ELISA on coated antigen, antibody 0.2 nM
Items are presented alongside their recorded OD450.
quantity.measured: OD450 (OD)

binder	quantity.measured	endpoint.unit	readout.value
S009-F7.44.20 (antibody, human IgG1, kappa, V domains shown, Human-murine chimeric antibody, human IgG1 heavy and kappa light constant regions) VH: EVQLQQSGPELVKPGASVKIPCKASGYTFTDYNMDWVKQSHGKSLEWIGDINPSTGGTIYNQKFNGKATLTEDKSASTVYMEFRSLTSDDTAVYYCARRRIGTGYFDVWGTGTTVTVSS VL: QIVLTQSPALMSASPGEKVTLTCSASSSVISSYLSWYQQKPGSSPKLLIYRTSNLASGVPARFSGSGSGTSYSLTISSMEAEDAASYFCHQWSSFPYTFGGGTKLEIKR	OD450	OD	0.05
S009-F7.53.2 (antibody, human IgG1, kappa, V domains shown, Human-murine chimeric antibody, human IgG1 heavy and kappa light constant regions) VH: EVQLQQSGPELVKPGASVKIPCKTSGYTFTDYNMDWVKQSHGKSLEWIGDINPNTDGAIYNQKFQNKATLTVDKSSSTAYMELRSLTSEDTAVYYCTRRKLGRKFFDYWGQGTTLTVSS VL: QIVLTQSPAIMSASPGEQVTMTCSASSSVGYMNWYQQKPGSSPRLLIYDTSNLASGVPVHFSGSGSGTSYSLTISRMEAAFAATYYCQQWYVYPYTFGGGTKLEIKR	OD450	OD	0.05
S009-F7.61.21 (antibody, human IgG1, kappa, V domains shown, Human-murine chimeric antibody, human IgG1 heavy and kappa light constant regions) VH: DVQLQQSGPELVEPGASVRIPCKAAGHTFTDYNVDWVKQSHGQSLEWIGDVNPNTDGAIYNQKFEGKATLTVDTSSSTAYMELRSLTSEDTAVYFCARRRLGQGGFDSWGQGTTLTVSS VL: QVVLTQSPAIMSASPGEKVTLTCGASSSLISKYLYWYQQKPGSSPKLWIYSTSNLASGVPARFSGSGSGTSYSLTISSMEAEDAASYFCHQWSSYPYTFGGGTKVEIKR	OD450	OD	0.05
